# Test System: GST-tagged recombinant full-length human Pim-2 (Homo sapiens)
# Construct: GST-tagged recombinant full-length human Pim-2; GST
# Sequence (Q9P1W9 whole entry): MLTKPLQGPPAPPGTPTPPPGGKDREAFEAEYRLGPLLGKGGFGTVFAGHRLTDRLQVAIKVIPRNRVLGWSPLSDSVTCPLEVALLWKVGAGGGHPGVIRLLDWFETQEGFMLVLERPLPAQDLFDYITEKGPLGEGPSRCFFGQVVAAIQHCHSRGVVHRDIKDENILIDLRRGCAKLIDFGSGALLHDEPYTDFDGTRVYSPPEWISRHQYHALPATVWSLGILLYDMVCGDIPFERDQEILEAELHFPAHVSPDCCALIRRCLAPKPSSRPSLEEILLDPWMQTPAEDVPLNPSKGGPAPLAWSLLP
# Measurement Notes: PIM-2 Assay (as Example A)
# Condition Info: averaged IC50; 4 μM ATP, 1.0 μM PIM2tide, 1.5 nM Pim-2
pIC50: −log10 of the molar value. Where a name gives a salt, the structure may show the parent alone.
Quantity Measured: pIC50

Please review the following examples before continuing.
Molecule	pIC50
CN(C)C(=O)c1ccc2ccc(-c3nnc4ccc([C@@H](N5CC[C@H](N)C5)C(F)(F)F)cn34)nc2c1 [Example 35, dihydrochloride]	< 6.00
CC(C)NC(=O)c1cccc2ccc(-c3nnc4ccc([C@@H](N5CC[C@H](N)C5)C(F)(F)F)cn34)nc12 [Example 87, dihydrochloride]	< 7.00
COc1cccc2ccc(-c3nnc4ccc([C@@H](N5CC[C@@](C)(N)C5)C(F)(F)F)cn34)nc12 [Example 240, dihydrochloride]	< 6.00
COc1cccc2ccc(-c3nnc4ccc([C@@H](N5CCC(C)(O)C5)C(F)(F)F)cn34)nc12 (single isomer, unassigned; diastereomer 1) [Example 193, hydrochloride]	< 6.00
Cc1cccc2ccc(-c3nnc4ccc([C@@H](N5CC[C@H](N)C5)C(F)(F)F)cn34)nc12 [Example 183, dihydrochloride]	< 7.00
COc1cc(C)cc2ccc(-c3nnc4ccc([C@@H](N5CC[C@H](N)C5)C(F)(F)F)cn34)nc12 [Example 127, hydrochloride]	< 7.00

Moving on to the next molecule.
# lookup: pIC50 of CC(C)Oc1cccc2ccc(-c3nnc4ccc([C@H](N5CC[C@@](C)(N)C5)C(F)(F)F)cn34)nc12 [Example 90, dihydrochloride]
< 7.00
